tested on: Jurkat; assay: Cytotoxicity against human Jurkat cells after 72 hrs by MTT assay; type: functional, cell-based
property_name: IC50
// return the numeric value with its unit appended

Worked examples follow.
>  <smiles_entry>
COC(=O)c1sc2ccc(C)cc2c1Nc1cc(OC)c(OC)c(OC)c1

>  <tested_on>
Jurkat

>  <IC50>
727 nM

$$$$
>  <smiles_entry>
CCOC(=O)c1sc2ncccc2c1Nc1cc(OC)c(OC)c(OC)c1

>  <tested_on>
Jurkat

>  <IC50>
8450 nM

$$$$
>  <smiles_entry>
COC(=O)c1sc2c(OC)cccc2c1Nc1cc(OC)c(OC)c(OC)c1

>  <tested_on>
Jurkat

>  <IC50>
56.5 nM

$$$$
>  <smiles_entry>
COC(=O)c1sc2cc(OC)ccc2c1Nc1cc(OC)c(OC)c(OC)c1

>  <tested_on>
Jurkat

>  <IC50>
1.7 nM

$$$$
>  <smiles_entry>
CCOC(=O)c1sc2cc(C)ccc2c1Nc1cc(OC)c(OC)c(OC)c1

>  <tested_on>
Jurkat

>  <IC50>
0.4 nM

$$$$

Name the reported IC50 value associated with the molecule COC(=O)c1sc2cccc(C)c2c1Nc1cc(OC)c(OC)c(OC)c1
6710 nM

Name the reported IC50 value associated with the molecule COC(=O)c1sc2ncccc2c1Nc1cc(OC)c(OC)c(OC)c1
1110 nM

Name the reported IC50 value associated with the molecule COC(=O)c1sc2ccccc2c1Nc1cc(OC)c(OC)c(OC)c1
490 nM

Name the reported IC50 value associated with the molecule COC(=O)c1sc2nc(C)ccc2c1Nc1cc(OC)c(OC)c(OC)c1
0.6 nM

Name the reported IC50 value associated with the molecule CCOC(=O)c1sc2cccc(C)c2c1Nc1cc(OC)c(OC)c(OC)c1
5670 nM

Name the reported IC50 value associated with the molecule CCOC(=O)c1sc2ccccc2c1Nc1cc(OC)c(OC)c(OC)c1
3020 nM

Name the reported IC50 value associated with the molecule COC(=O)c1sc2cc(C)ccc2c1Nc1cc(OC)c(OC)c(OC)c1
0.6 nM

Name the reported IC50 value associated with the molecule CCOC(=O)c1sc2cc(OC)ccc2c1Nc1cc(OC)c(OC)c(OC)c1
3.3 nM

* * *

Each record here notes measured pIC50.
tested on: HeLa; assay: Cytotoxicity against human HeLa cells after 72 hrs by MTT assay; assay type: functional, cell-based
pIC50 here: minus log base 10 of the concentration, concentration in moles per litre.

Worked examples follow.
>  <smiles_entry>
CCOC(=O)c1sc2cc(C)ccc2c1Nc1cc(OC)c(OC)c(OC)c1

>  <reported_value>
9.42

$$$$
>  <smiles_entry>
CCOC(=O)c1sc2ccccc2c1Nc1cc(OC)c(OC)c(OC)c1

>  <reported_value>
5.51

$$$$
>  <smiles_entry>
COC(=O)c1sc2c(C)cccc2c1Nc1cc(OC)c(OC)c(OC)c1

>  <reported_value>
5.76

$$$$
>  <smiles_entry>
COC(=O)c1sc2ccccc2c1Nc1cc(OC)c(OC)c(OC)c1

>  <reported_value>
6.37

$$$$
>  <smiles_entry>
COC(=O)c1sc2cc(C)ccc2c1Nc1cc(OC)c(OC)c(OC)c1

>  <reported_value>
9.51

$$$$
>  <smiles_entry>
COC(=O)c1sc2cccc(C)c2c1Nc1cc(OC)c(OC)c(OC)c1

>  <reported_value>
5.89

$$$$
>  <smiles_entry>
COC(=O)c1sc2c(OC)cccc2c1Nc1cc(OC)c(OC)c(OC)c1

>  <reported_value>
8.46

$$$$
>  <smiles_entry>
CCOC(=O)c1sc2cccc(C)c2c1Nc1cc(OC)c(OC)c(OC)c1

>  <reported_value>
5.60

$$$$

Name the reported pIC50 value associated with the compound COC(=O)c1sc2cc(OC)ccc2c1Nc1cc(OC)c(OC)c(OC)c1
9.55

Name the reported pIC50 value associated with the compound COC(=O)c1sc2ccc(C)cc2c1Nc1cc(OC)c(OC)c(OC)c1
6.40

Name the reported pIC50 value associated with the compound CCOC(=O)c1sc2cc(OC)ccc2c1Nc1cc(OC)c(OC)c(OC)c1
9.25

Name the reported pIC50 value associated with the compound CCOC(=O)c1sc2ncccc2c1Nc1cc(OC)c(OC)c(OC)c1
5.68

Name the reported pIC50 value associated with the compound COC(=O)c1sc2nc(C)ccc2c1Nc1cc(OC)c(OC)c(OC)c1
9.74
